Please respond with reported cAMP EC50 for every item in the list.
Biological target: human GLP-1 receptor (human, UniProt P43220 24-463)
Experiment: cell-based or functional assay

What the record says about YXEGTXTSDXSIXLDXKAQXKFIXXLIEGGPSSGAPPPS (Aib2, αMeF(2F)6, hTyr10, αMeL13, Orn16, Aib20, D-Glu24, αMeY25; K17 and K21: AEEA2-(γ-Glu)-CO-(CH2)10-CH3; C-terminal NH2) [Example 323] : cAMP EC50 is 203 pM

Entry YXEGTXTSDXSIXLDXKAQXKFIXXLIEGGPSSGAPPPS (Aib2, αMeF(2F)6, hTyr10, αMeL13, Orn16, Aib20, D-Glu24, αMeY25; K17 and K21: AEEA2-(γ-Glu)-(10-(4-carboxyphenoxy)decanoyl); C-terminal NH2) [Example 320] — recorded cAMP EC50 = 246 pM

YXEGTXTSDXSIXLDXKAQXEFIXXLIKGGPSSGAPPPS (Aib2, αMeF(2F)6, hTyr10, αMeL13, Orn16, Aib20, D-Glu24, αMeY25; K17 and K28: AEEA2-(γ-Glu)-(10-(4-carboxyphenoxy)decanoyl); C-terminal NH2) [Example 327] yielded cAMP EC50 of 211 pM

These measurements were taken from patent US20230265151A1.
